system: P. aeruginosa strain CFS-1292; experiment: MIC in presence of divalent cations (calcium chloride, magnesium sulfate); format: cell-based, Pseudomonas aeruginosa; settings: CAA media alone
Some sequences, each annotated with its measured MIC.
Numeric only. Scale: µg/mL

Look over these answered cases.
q: Input MARRRYRLPRRRSRRLFSRTALRMHPRNRLRRIMRGGIRF [Chp6] , output reported MIC.
a: 1

q: Determine from records and report MIC for MRRRRLSRRTSRRFFRKGLKVRRRNLRARPMRGGFRI [Unp2]
a: 0.25

q: Tell us which MIC value is on record for MARRYRLSRRRSRRLFSRTALRMHRRNRLRRIMRGGIRF [Chp4]
a: 0.5

q: Input MARSRRRMSKRSSRRSFRKYAKTHKRNFKARSMRGGIRL [Ecp1] , output reported MIC.
a: 0.5

q: # return recorded MIC for entry MRLKMARRRYRLPRRRSRRLFSRTALRMHPRNRLRRIMRGGIRF [Chp2]
a: 0.5

q: Assign MIC to the following record: MVRRRRLRRRISRRIFRRTVARVGRRRRSFRGGIRF [Chp1]
a: 1

---
q: Determine from records and report MIC for MARSRRRMSKRSSRRSFRKYAKTHKKNFKARSMRGGIRL [Ecp3]
a: 1

q: Please report the measured MIC for MKRRKLSKKKSRKIFTRGAVNVKKRNLRARPMRGGFRI [Chp10]
a: 0.5

----------
test system: P. aeruginosa strain CFS-1292; experiment: Checkerboard assay (FICI) with antibiotics, P. aeruginosa; type: cell-based, Pseudomonas aeruginosa; settings: combined with Chp2-M1; P. aeruginosa CFS-1292
Readings of Antibiotic FIC for the listed compounds
I'd appreciate a reply containing only the number, no unit.

q: Supply reported Antibiotic FIC belonging to this compound: CCN1CCN(C(=O)N[C@@H](C(=O)N[C@@H]2C(=O)N3[C@@H]2SC(C)(C)[C@@H]3C(=O)O)c2ccccc2)C(=O)C1=O [Piperacillin]
a: 0.125

q: Answer with reported Antibiotic FIC of NC[C@H]1O[C@H](O[C@H]2[C@H](O)[C@@H](O[C@H]3O[C@H](CO)[C@@H](O)[C@H](N)[C@H]3O)[C@H](N)C[C@@H]2N)[C@H](N)C[C@@H]1O [tobramycin, reference compound]
a: 0.25

q: Hello, please tell me recorded Antibiotic FIC for this one: NCC[C@H](O)C(=O)N[C@@H]1C[C@H](N)[C@@H](O[C@H]2O[C@H](CN)[C@@H](O)[C@H](O)[C@H]2O)[C@H](O)[C@H]1O[C@H]1O[C@H](CO)[C@@H](O)[C@H](N)[C@H]1O [Amikacin]
a: 0.25

q: Give the reported value of Antibiotic FIC for this record: C[C@H]1[C@H](NC(=O)/C(=N\OC(C)(C)C(=O)O)c2csc(N)n2)C(=O)N1S(=O)(=O)O [Aztreonam]
a: 0.5

q: In one line, give reported Antibiotic FIC of the entry C[C@H]1COc2c(N3CCN(C)CC3)c(F)cc3c(=O)c(C(=O)O)cn1c23 [Levofloxacin] .
a: 0.25

Could you now consider this next compound?
q: Please list Antibiotic FIC recorded for the compound C[C@@H](O)[C@H]1C(=O)N2C(C(=O)O)=C(S[C@@H]3CN[C@H](C(=O)N(C)C)C3)[C@H](C)[C@H]12 [meropenem, reference compound]
a: 0.25
